Assay: Phase 1 pharmacokinetic study of a single oral dose of 20 mg E4 monohydrate in female subjects with normal hepatic function and mild, moderate or severe hepatic impairment (plasma, LC-MS/MS, non-compartmental analysis)
Assay type: in vivo, human
Conditions: female, human, plasma, po, 20 mg, Moderate hepatic impairment; single oral dose 20 mg E4 monohydrate; plasma; read-out: T1/2, GM (converted)
measurement-kind: half-life
In your response, put the unit directly after the numeric value.

Task: Requested read-out: half-life. Entry: C[C@]12CC[C@@H]3c4ccc(O)cc4CC[C@H]3[C@@H]1[C@@H](O)[C@@H](O)[C@@H]2O [E4]
Output: 14.8 h

* * *

Test: Phase 1 pharmacokinetic study of a single oral dose of 20 mg E4 monohydrate in female subjects with normal hepatic function and mild, moderate or severe hepatic impairment (plasma, LC-MS/MS, non-compartmental analysis)
Format: in vivo, human
Conditions: female, human, plasma, po, 20 mg, Severe hepatic impairment; single oral dose 20 mg E4 monohydrate; plasma; read-out: Vz/F, GM
Method: This was a Phase 1, multi-centre, open-label, PK, and safety study of a single oral dose of 20 mg E4 monohydrate in female subjects with normal hepatic function (Group 1), mild hepatic impairment (Group 2), moderate hepatic impairment (Group 3), and severe hepatic impairment (Group 4), as defined using the Child-Pugh classification at Screening. […] PK parameters were calculated by non-compartmental analysis. […]
measurement-kind: Vd/F (L)
Express your answer in L, writing the number without its unit.

Task: Requested read-out: Vd/F. Entry: C[C@]12CC[C@@H]3c4ccc(O)cc4CC[C@H]3[C@@H]1[C@@H](O)[C@@H](O)[C@@H]2O
Output: 1200
